The values you see were collected from the supplement of paper PMC6992640.

# System: HCI01 (cells of a triple-negative basal-like breast cancer xenograft)
# protocol: cell viability (% of vehicle); higher = less cytotoxic;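 note: PDX cells carrying CMV promoter-driven luciferase, viability read as total photon flux per second by IVIS imaging following D-luciferin, vehicle control 0.1% DMSO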
# applied-conditions: 10 µM; 72 h
cell viability strictly under 100 means 1; at 100 or over means 0.

1) CCCCOc1cc(C(=O)NCCN(CC)CC)c2ccccc2n1
1
2) OCC1OC(c2ccc(Cl)c(Cc3ccc(OC4CCOC4)cc3)c2)C(O)C(O)C1O (configuration not stated)
1
3) CN(C)CCc1c[nH]c2ccc(CC3COC(=O)N3)cc12 (configuration not stated)
1
4) CC(Nc1ncnc2nc[nH]c12)c1cc2cccc(Cl)c2c(=O)n1-c1ccccc1 (configuration not stated)
1
5) CCN(CC)CCNC(=O)c1c(C)[nH]c(C=C2C(=O)Nc3ccc(F)cc32)c1C
0
6) NCC1OC(OC2C(N)CC(N)C(OC3OC(CO)C(O)C(N)C3O)C2O)C(O)C(O)C1O.O=S(=O)(O)O (configuration not stated) [Kanamycin Sulfate]
0
7) Nc1ncn(C2CC(O)C(CO)O2)c(=O)n1 (configuration not stated)
0
8) O=C([O-])c1cc(=O)c2c(OCC(O)COc3cccc4oc(C(=O)[O-])cc(=O)c34)cccc2o1.[Na+].[Na+] [Cromolyn sodium]
0
9) CCC(=O)OC1(C(=O)SCF)C(C)CC2C3CC(F)C4=CC(=O)C=CC4(C)C3(F)C(O)CC21C (configuration not stated) [Fluticasone propionate]
1
10) CC(C)(C)c1cc(NC(=O)Nc2ccc(-c3cn4c(n3)sc3cc(OCCN5CCOCC5)ccc34)cc2)no1
0
11) O=C(O)Cc1cc(I)c(Oc2ccc(O)c(I)c2)c(I)c1
0
12) CNC(=O)[C@H](Cc1ccccc1)NC(=O)[C@H](CC(C)C)[C@H](CSc1cccs1)C(=O)NO
1
13) CS(=O)(=O)CCNCc1ccc(-c2ccc3ncnc(Nc4ccc(OCc5cccc(F)c5)c(Cl)c4)c3c2)o1.Cc1ccc(S(=O)(=O)O)cc1.Cc1ccc(S(=O)(=O)O)cc1 [Lapatinib Ditosylate]
1
14) Cl.O=C1CC2(CCCC2)CC(=O)N1CCCCN1CCN(c2ncccn2)CC1 [Buspirone HCl]
0
15) CC(C)n1c(C=CC(O)CC(O)CC(=O)[O-])c(-c2ccc(F)cc2)c2ccccc21.[Na+] (configuration not stated) [Fluvastatin Sodium]
1
16) CNCC(O)C(O)C(O)C(O)CO.Cc1c(Nc2ncccc2C(=O)O)cccc1C(F)(F)F
0
17) CC(CN1CC(=O)NC(=O)C1)N1CC(=O)NC(=O)C1 (configuration not stated)
1

---

# System: WHIM30 (cells of a triple-negative basal-like breast cancer xenograft)
# protocol: cell viability (% of vehicle); higher = less cytotoxic
# applied-conditions: 10 µM; 72 h
// reported cell viability for each item listed
quantity-measured: cell viability

1) CC(=O)OCC(CCn1cnc2cnc(N)nc21)COC(C)=O
114
2) CCN(CC)CCOC(=O)C(c1ccccc1)c1ccccc1.Cl [Adiphenine HCl]
117
3) Nc1nccs1
105
4) COc1cc2nc(N3CCN(C(=O)C4COc5ccccc5O4)CC3)nc(N)c2cc1OC.CS(=O)(=O)O (stereo unspecified) [Doxazosin Mesylate]
117
5) CNC(=C[N+](=O)[O-])NCCSCc1csc(CN(C)C)n1
123
6) CN(C)CC(c1ccc(O)cc1)C1(O)CCCCC1.O.O=C(O)CCC(=O)O (stereo unspecified) [Desvenlafaxine Succinate]
133
7) COc1nc(C)cnc1NS(=O)(=O)c1cccnc1-c1ccc(-c2nnco2)cc1 [Zibotentan (ZD4054)]
139
8) COCCCOc1cc(CC(CC(N)C(O)CC(C(=O)NCC(C)(C)C(N)=O)C(C)C)C(C)C)ccc1OC.COCCCOc1cc(CC(CC(N)C(O)CC(C(=O)NCC(C)(C)C(N)=O)C(C)C)C(C)C)ccc1OC.O=C(O)C=CC(=O)O (stereo unspecified) [Aliskiren Hemifumarate]
140
9) CCc1cc(C(C)=NOCc2ccc(C3CCCCC3)c(C(F)(F)F)c2)ccc1CN1CC(C(=O)O)C1 [BAF312 (Siponimod)]
111
10) C=CC(=O)Nc1cccc(Nc2nc(Nc3ccc(N4CCN(C(C)=O)CC4)cc3OC)ncc2C(F)(F)F)c1
99.6
11) CS(=O)(=O)O.Cc1ccc(N(CC2=NCCN2)c2cccc(O)c2)cc1 [Phentolamine Mesylate]
137
12) CC1=C(CC(=O)O)c2cc(F)ccc2C1=Cc1ccc(S(C)=O)cc1 (stereo unspecified)
104
13) CC(C)=CCCC(C)=CCCC(C)=CCSc1ccccc1C(=O)O
120
14) CCCCCCCN(CC)CCCC(O)c1ccc(NS(C)(=O)=O)cc1.CCCCCCCN(CC)CCCC(O)c1ccc(NS(C)(=O)=O)cc1.O=C(O)C=CC(=O)O (stereo unspecified) [Ibutilide Fumarate]
128
15) CNCCC(Oc1ccc(C(F)(F)F)cc1)c1ccccc1.Cl (stereo unspecified) [Fluoxetine HCl]
65.9
16) CO[C@H]1C(=O)[C@]2(C)[C@@H](OC)C[C@H]3OC[C@@]3(OC(C)=O)[C@H]2[C@H](OC(=O)c2ccccc2)[C@]2(O)C[C@H](OC(=O)[C@H](O)[C@@H](NC(=O)OC(C)(C)C)c3ccccc3)C(C)=C1C2(C)C
107
17) CN(C)CCc1c[nH]c2ccc(CC3COC(=O)N3)cc12 (stereo unspecified)
131
18) FC(F)(F)c1ccc(CNc2ccc(Cc3c[nH]c4ncc(Cl)cc34)cn2)cn1
86
19) O=C(O)c1cccnc1
144
20) O=C(O)CCC(=O)O.O=C(OC1CN2CCC1CC2)N1CCc2ccccc2C1c1ccccc1 (stereo unspecified) [Solifenacin succinate]
87.6
21) CS(=O)(=O)c1ccc(C(O)C(CF)NC(=O)C(Cl)Cl)cc1 (stereo unspecified)
99.1
22) O=C(O)c1cc(=O)c2ccccc2o1
85.9
23) CC12CCC3c4ccc(O)cc4CC(CCCCCCCCCS(=O)CCCC(F)(F)C(F)(F)F)C3C1CCC2O (stereo unspecified)
129
24) CCc1cc(C(N)=S)ccn1 [Ethionamide]
98.5
25) CCCCOc1ccc(CC(=O)NO)cc1
102
26) Cc1cc(C)cc(OCC2CNC(=O)O2)c1 (stereo unspecified)
102
27) CNC(=O)CN(CCN(CCN(CC(=O)[O-])CC(=O)NC)CC(=O)[O-])CC(=O)[O-].O.[Gd+3] [Gadodiamide]
94.5
28) O=C(C=Cn1cnc(-c2cc(C(F)(F)F)cc(C(F)(F)F)c2)n1)NNc1cnccn1
46.7
29) Cl.N=C(N=C(N)N)N1CCOCC1 [Moroxydine HCl]
165
30) CC(C)OC(=O)OCOP(=O)(COC(C)Cn1cnc2c(N)ncnc21)OCOC(=O)OC(C)C.O=C(O)C=CC(=O)O (stereo unspecified) [Tenofovir Disoproxil Fumarate]
136
31) NCC1OC(OC2C(CO)OC(OC3C(O)C(N)CC(N)C3OC3OC(CO)C(O)C(O)C3N)C2O)C(N)C(O)C1O.O=S(=O)(O)O (stereo unspecified) [Paromomycin Sulfate]
111
